tested on: HeLa; test: Broad cell line profiling, HeLa; assay type: cell-based; details: Homo sapiens, Cervical Adenocarcinoma, read-out: PA IC50
endpoint.label: pIC50
Answers are plain numbers, as −log10 of the molar value.

Q. If you can, please state the reported pIC50 value of C=CC1=C[C@@H]2[C@@H]3O[C@]4(CC[C@H](O4)C(C)C[C@@H](O)C3=O)CC(O)C3=NCC[C@@]32CC1 (stereo partly shown) .
A. 8.80

====

test system: MC38; experiment: Broad cell line profiling, MC38; assay type: cell-based; conditions: MC-38; MC38, Mouse Colon Carcinoma; read-out: PA IC50
endpoint.label: pIC50
One number for each entry, as −log10 of the molar value.

Q. Which measured pIC50 value corresponds to C=CC1=C[C@@H]2[C@@H]3O[C@]4(CC[C@H](O4)C(C)C[C@@H](O)C3=O)CC(O)C3=NCC[C@@]32CC1 (stereo partly shown) ?
A. 9.26

====

system: HepG2; test: Broad cell line profiling, HepG2; assay type: cell-based; details: Homo sapiens; HepG2, Hepatocellular Carcinoma; read-out: PA IC50
endpoint.label: pIC50
Answers are plain numbers, as −log10 of the molar value.

Q. If you can, please state the reported pIC50 value of C=CC1=C[C@@H]2[C@@H]3O[C@]4(CC[C@H](O4)C(C)C[C@@H](O)C3=O)CC(O)C3=NCC[C@@]32CC1 (stereo partly shown) .
A. 8.32

====

tested on: RD; assay: Broad cell line profiling, RD; assay type: cell-based; details: Human Rhabdomyosarcoma, read-out: PA IC50
endpoint.label: IC50 (nM)
Answers are plain numbers, in nM.

Q. Requested field: IC50. Item: C=CC1=C[C@@H]2[C@@H]3O[C@]4(CC[C@H](O4)C(C)C[C@@H](O)C3=O)CC(O)C3=NCC[C@@]32CC1 (stereo partly shown) [PA, portimine A]
A. 0.56
